B1: PhoQ; a variant is named by its letters at X, in order, P23837 (parent)
chain: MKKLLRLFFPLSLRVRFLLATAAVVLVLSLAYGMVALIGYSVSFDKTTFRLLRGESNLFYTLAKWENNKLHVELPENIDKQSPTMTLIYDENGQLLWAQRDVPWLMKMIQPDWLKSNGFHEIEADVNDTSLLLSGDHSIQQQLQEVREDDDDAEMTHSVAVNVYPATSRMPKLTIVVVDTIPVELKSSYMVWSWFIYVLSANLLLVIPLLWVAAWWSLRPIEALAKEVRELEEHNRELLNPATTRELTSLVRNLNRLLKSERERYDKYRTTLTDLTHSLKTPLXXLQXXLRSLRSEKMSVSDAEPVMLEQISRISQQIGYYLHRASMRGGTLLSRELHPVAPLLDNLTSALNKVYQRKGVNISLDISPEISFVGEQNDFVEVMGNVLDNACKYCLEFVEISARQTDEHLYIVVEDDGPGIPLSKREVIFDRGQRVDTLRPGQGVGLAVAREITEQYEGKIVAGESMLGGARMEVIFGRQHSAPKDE

Variants of: B1
Protocol: enrichment ratio after two sorts for PhoP signalling (ratio (wild type AVST 3.29)); higher = more functional
Assay Context: with PhoP (E. coli)
Over roughly 140,000 sequences, “enrichment ratio after two sorts for PhoP signalling” has its median near 0; the highest 2% begin near 11. This excerpt belongs to a sample that is enriched for the highest values.
Rule: Y for enrichment ratio not less than 6, N for anything less.

1. HMAW | N
2. PIGM | N
3. ETRK | N
4. TPEY | N
5. DPWI | N
6. VVLM | N
7. MRMA | N
8. AWLF | N
9. DPIA | N
10. MYPK | N
11. THNH | Y
12. HFQN | N
13. SQSQ | Y
14. YTMN | N
15. REVG | N
16. WERP | N
17. YTLG | Y
18. TTLG | Y
19. QHNS | N
20. KYSC | N
21. SETD | N
22. WHSD | N
23. SESQ | Y
24. NNFT | N
25. QHNY | Y
26. SEMH | Y
27. SETE | N
28. SESK | N
29. SANH | N
30. ECFS | N
31. STMH | Y
32. FTMY | N
33. YEIT | N
34. SESC | Y
